- assay: chemical genetic growth profiling, strain panel (AID 1159580);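 further: tested at 20 µM; growth read once vehicle control cultures reached saturation at 30 °C; 1 = growth at the plate median or of vehicle wells; lower values mean less growth of the strain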
- condition-summary: S. cerevisiae deletion strains, growth OD, locus YPR111W, strain DBF20
In all, about 5,500 compounds went through this assay and about 2,000 (36%) were called active. Not shown: some 18% with an inconclusive outcome. No stated cut-off is given here; in the data, active means normalized growth mostly below about 0.91 (no sharp cut-off); inconclusive means no clear call, values can overlap the other calls; inactive means mostly above about 0.92. This is one part of the list.
Tick one outcome: 1 (yes) for active, 0 (no) for inactive

compound: O=C(N/C=C/c1ccsc1)Nc1cc(C(F)(F)F)cc(C(F)(F)F)c1
assigned-class: 0 (no)

compound: Cc1nnsc1C(=O)Nc1cc(C(F)(F)F)cc(C(F)(F)F)c1
assigned-class: 0 (no)

compound: O=C(Oc1ccc(C(F)(F)F)cc1[N+](=O)[O-])c1cccc(Cl)c1
assigned-class: 1 (yes)

compound: CS(=NC(=O)c1cccc(Cl)c1)c1ccc(OC(=O)c2ccc(Cl)cc2)cc1 (stereo unspecified)
assigned-class: 0 (no)

compound: O=C(NNc1ccccc1F)c1ccno1
assigned-class: 0 (no)

compound: Cc1ccc(/C=C2\CSc3ccc(F)cc3C2=O)cc1
assigned-class: 0 (no)

compound: Cc1ccc2nc(-c3ccc(Cl)cc3)cn2c1
assigned-class: 0 (no)

compound: Cc1ccc(OCC2SCCN2C(=O)c2ccc(C(F)(F)F)cc2)c([N+](=O)[O-])c1 (stereo unspecified)
assigned-class: 0 (no)

compound: Nc1ccccc1SCc1c(Cl)cccc1Cl
assigned-class: 0 (no)

compound: COc1cc(NC(=S)NNS(=O)(=O)c2ccc(C)cc2)c(OC)cc1Cl
assigned-class: 0 (no)

(Q) Called result for O=c1c(Sc2ccc(Cl)cc2)c(Sc2ccc(Cl)cc2)c1=O
(A) 0 (no)

(Q) Could you please tell me the result logged for COc1ccc(CN2CSC(=S)N(Cc3ccc(OC)cc3)C2)cc1 in this assay?
(A) 0 (no)

(Q) Would you mind telling me which call this test gave Cc1c(Cc2ccc(F)cc2)c(=O)oc2cc(O)ccc12 ?
(A) 0 (no)

(Q) What did the test return for CC(=O)CSc1nnc(-c2ccc(C(C)(C)C)cc2)n1-c1ccc(Cl)cc1 ?
(A) 0 (no)

---

- assay: chemical genetic growth profiling, strain panel (AID 1159580);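 further: tested at 20 µM; growth read once vehicle control cultures reached saturation at 30 °C; 1 = growth at the plate median or of vehicle wells; lower values mean less growth of the strain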
- condition-summary: S. cerevisiae deletion strains, growth OD, locus YAL013W, strain DEP1
Hit rate of the full screen: of about 5,500 compounds, about 2,000 (36%) were called active. Another 18% or so got no clear call; they are omitted. Cut-off read from the data, not from the text of the source: active = normalized growth mostly below about 0.91 (no sharp cut-off); inconclusive = no clear call, values can overlap the other calls; inactive = mostly above about 0.92. This is one part of the list.
Respond using exactly one of the listed classes: true (active), false (inactive)

Before answering, review these 2 worked examples.
molecule: C[C@@H]1[C@H]2[C@H](O[C@@H]3O[C@H](CO)[C@@H](O)[C@H](O)[C@H]3O)OC=C(C(=O)O)[C@H]2C[C@@H]1O
assigned-class: false
--
molecule: Cc1ccc(OS(=O)(=O)c2ccc(C#N)cc2)c(Br)c1
assigned-class: false

(Q) Can you look up the reported call for CCOC(=O)C(=CNNC(=O)c1ccccc1-n1cccc1)C(=O)OCC for me?
(A) false

(Q) Please share the test call associated with C=Cc1c2[nH]c(c1C)Cc1[nH]c(c(C)c1C=C)C=C1N=C(C=c3[nH]c(c(C)c3CCC(=O)O)=C2)C(CCC(=O)O)=C1C .
(A) false

(Q) State the result this test recorded for COc1ccc(OC)c(S(=O)(=O)Oc2ccc(C#N)cc2)c1 .
(A) false

(Q) Entry CN(C)CC/C=C1\c2ccccc2Sc2ccc(Cl)cc21 : call = ?
(A) true

(Q) Recorded test call requested for Clc1cccc(Cl)c1CSC1=NCCCN1C1CCCCC1
(A) false

(Q) # lookup: test call for COCCc1ccc(OCC(O)CNC(C)C)cc1 (configuration not stated)
(A) false

(Q) Tell me the recorded outcome of this test for C=Cc1c2[nH]c(c1C)C=c1[nH]c(c(C)c1C=C)=CC1N=C(C=c3[nH]c(c(C)c3CCC(=O)O)=C2)C(CCC(=O)O)=C1C (configuration not stated) .
(A) false

(Q) Check the results log: what was the call for COc1cc(NC(C)CCCN)c2ncccc2c1 (configuration not stated) ?
(A) false

(Q) For COc1ccc2cc([C@H](C)CO)ccc2c1 , which call appears in the assay record?
(A) false

(Q) // param item: CCOC(=O)C(=CNc1cccc(C#N)c1)C(=O)OCC ; yields the recorded call
(A) false

(Q) Which result was noted for this molecule in the test: CC(C(=O)O)c1cccc(C(=O)c2ccccc2)c1 (configuration not stated)
(A) false
